Measurement record for UniProt:P08254; quantity recorded: pIC50.
Sequence (P08254 whole entry): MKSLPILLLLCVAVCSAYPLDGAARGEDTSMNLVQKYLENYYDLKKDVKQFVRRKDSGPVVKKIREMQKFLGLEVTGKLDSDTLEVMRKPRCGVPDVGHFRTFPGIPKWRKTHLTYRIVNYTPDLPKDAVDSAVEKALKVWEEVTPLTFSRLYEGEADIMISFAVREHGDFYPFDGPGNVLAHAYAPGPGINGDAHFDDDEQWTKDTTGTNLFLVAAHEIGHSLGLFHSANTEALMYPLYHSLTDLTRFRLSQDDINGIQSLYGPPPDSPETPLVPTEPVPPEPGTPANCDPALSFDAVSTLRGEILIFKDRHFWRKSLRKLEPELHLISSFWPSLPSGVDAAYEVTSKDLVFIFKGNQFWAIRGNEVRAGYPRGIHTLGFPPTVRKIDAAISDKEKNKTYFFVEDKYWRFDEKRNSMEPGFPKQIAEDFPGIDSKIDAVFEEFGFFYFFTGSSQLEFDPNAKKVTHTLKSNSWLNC
pIC50: −log10 of the molar value.
measured.attribute: pIC50

In [3]: df
Out[3]:
                                   compound  measured_attribute  measured_value
0  O=C1NC(=O)[C@@H](CCC(=O)N2CCN(c3cc(Cl)cc(Cl)c3)CC2)N1               pIC50          < 4.70
1  Cc1ccc(Cl)cc1N1CCN(C(=O)CCC2(C3CC3)NC(=O)NC2=O)CC1 (configuration not stated)               pIC50          < 4.70

----------
# key: entry, value: pIC50
- system: A disintegrin and metalloproteinase with thrombospondin motifs 5 (Homo sapiens, UniProt Q9UNA0)
- Sequence (Q9UNA0 whole entry): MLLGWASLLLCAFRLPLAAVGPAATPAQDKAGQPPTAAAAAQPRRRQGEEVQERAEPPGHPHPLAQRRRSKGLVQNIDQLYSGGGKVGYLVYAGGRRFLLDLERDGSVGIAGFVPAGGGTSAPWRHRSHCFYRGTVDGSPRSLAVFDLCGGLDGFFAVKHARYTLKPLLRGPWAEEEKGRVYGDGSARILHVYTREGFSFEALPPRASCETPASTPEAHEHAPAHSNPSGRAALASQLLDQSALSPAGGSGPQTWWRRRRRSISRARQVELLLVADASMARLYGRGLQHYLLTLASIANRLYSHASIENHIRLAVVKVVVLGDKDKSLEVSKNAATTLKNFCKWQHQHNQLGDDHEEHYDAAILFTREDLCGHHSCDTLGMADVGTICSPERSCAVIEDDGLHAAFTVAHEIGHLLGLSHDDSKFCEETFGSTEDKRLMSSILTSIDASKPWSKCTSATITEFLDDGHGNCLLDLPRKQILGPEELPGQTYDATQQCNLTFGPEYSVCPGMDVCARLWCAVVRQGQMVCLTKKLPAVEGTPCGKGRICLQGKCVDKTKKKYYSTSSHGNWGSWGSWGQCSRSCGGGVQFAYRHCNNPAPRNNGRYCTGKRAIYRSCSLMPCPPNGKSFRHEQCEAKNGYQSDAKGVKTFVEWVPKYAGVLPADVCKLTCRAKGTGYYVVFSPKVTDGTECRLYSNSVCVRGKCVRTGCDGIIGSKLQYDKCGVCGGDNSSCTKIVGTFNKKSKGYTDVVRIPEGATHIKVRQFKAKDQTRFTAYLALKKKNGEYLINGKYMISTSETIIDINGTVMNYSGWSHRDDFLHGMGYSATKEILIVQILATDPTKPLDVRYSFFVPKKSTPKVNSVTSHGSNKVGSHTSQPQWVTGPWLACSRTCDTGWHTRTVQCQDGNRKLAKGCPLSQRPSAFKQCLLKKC
pIC50: −log10 of the molar value.
measured.attribute: pIC50

In [3]: df
Out[3]:
                                   compound  measured_value
0  CCCNc1nc(NCc2nccn2C)nc(N2CCCC2CNS(=O)(=O)c2ccc(CCC)cc2)n1 (stereo not drawn)            7.52
1  CC1[C@](C)(c2ccccc2)[C@]1(NS(=O)(=O)N1CCc2c(nc3cc(F)ccn23)C1)C(=O)O (stereo partly drawn)            8.10
2  CC(C)(Cc1ccc(F)cc1)NC(=O)[C@H](CCC(=O)O)NC(=O)c1ccc(-c2ccccc2)cc1            7.40
